tested on: MS2 coat protein; assay: apparent KD of MS2 coat protein; designed switch direction (-1 OFF switch, 1 ON switch): -1; higher = weaker reporter binding; details: input ligand: microRNA oligo, concentration not stated

{"Seq": "GUGGGUCCUCACGGUGCUACAUGAGGAUCACCCAUGUGGAUUGAGGAUAUCGUAACCCGACGGGACGAGAAGGCAGUUUACUGU [Ex NG3 #99] (Eterna round: R96, puzzle: Exclusion NG 3)", "Unit string": "nM", "apparent KD of MS2 coat protein": 14.8}
{"Seq": "UGAUCAGACCGAGGAUAUAUAUGGAGGACCCACGUGAGUGGGUCCACUACAUGAGGAUCACCCAUGUAGAAGGCGGUCUGAUCU [JL ENG2 1.86] (Eterna round: R96, puzzle: Exclusion NG 2)", "Unit string": "nM", "apparent KD of MS2 coat protein": 9.64}
{"Seq": "AGCUGUGGCCGAGGAUAUCUAAUAUCCCUAACCGAAAUAUAAUCGGACAUGAGGAUCACCCAUGUAGAGAAGGCGGUCUCAGCA [Eli eng2 - 065] (Eterna round: R96, puzzle: Exclusion NG 2)", "Unit string": "nM", "apparent KD of MS2 coat protein": 19.3}
{"Seq": "ACAUGACUGCUAGGAUAUAGAUGACAUGAGGAUCACCCAUGUUAUCCCAUGUUGACGGAAACCGACUAGAAGGAGCAACAUAUG [Ex NG2 #8] (Eterna round: R96, puzzle: Exclusion NG 2)", "Unit string": "nM", "apparent KD of MS2 coat protein": 30.6}
{"Seq": "GGCUGCAAUGUAGGAUAUCUGCACGAUUAGUGCAGAGAAGGACAUGAGGAUCACCCAUGUAUAGUAGCUUCGGCUACAGCAGCC [ENG1-D1] (Eterna round: R96, puzzle: Exclusion NG 1)", "Unit string": "nM", "apparent KD of MS2 coat protein": 14.2}
{"Seq": "AUUUAAUUUAAUAAGAUCACAUGAGGAUCACCCAUGUUAUAAUAGGAUAUCAGCUCGAAUAGAGCUGAGAAGGAUUAUAACAUG [ExNG3/9-A4] (Eterna round: R96, puzzle: Exclusion NG 3)", "Unit string": "nM", "apparent KD of MS2 coat protein": 138}
{"Seq": "UAGUUAUUCACAGGAUAUCGCCUCUUAUUACAUGAGGAUCACCCAUGUUUACUUAGUUACAUGUUCGAGAAGGGUGUAGCCGUU [JR_ExcNG2_Sub044] (Eterna round: R96, puzzle: Exclusion NG 2)", "Unit string": "nM", "apparent KD of MS2 coat protein": 301}
{"Seq": "UACAUGAGGAUCACCCAUGUUUUGUCGUGUAUGGUAUUUAUCUAGGAUAUCAAUUGUUUUAUUUAUGAGAAGGAGAAUAUUAAU [JMF's solution 56] (Eterna round: R96, puzzle: Exclusion NG 3)", "Unit string": "nM", "apparent KD of MS2 coat protein": 24.8}

###

tested on: MS2 coat protein; test: apparent KD of MS2 coat protein, switch OFF state (with FMN for OFF switches, without FMN for ON switches); designed switch direction (-1 OFF switch, 1 ON switch): 1; higher = weaker reporter binding; details: FMN input: 0 or 200 uM; Eterna round: R93 (includes R88 designs)
We use 100 nM as the dividing line for apparent KD of MS2 coat protein: on or above the line is Condition met, below is Condition not met.

{"Seq": "UCGUCCUCGUGCUAGGAUAUCCAUCGUAAAACAUGAGGAUCACCCAUGUAGAAAUGCGCCUACGAGGAGAAGGAGCGAUGUGGAU [Velemageer]", "Label value": "Condition not met"}
{"Seq": "AGCAUCACCAGUCAGGAUAUGUAGGCCUUGACAUGAGGAUCACCCAUGUGGACGAAACACCGGCCACAGAAGGGAUUGUAAAUAA [Ries]", "Label value": "Condition not met"}
{"Seq": "AGAAAUAAAACACAGGAUAUCCAAAAUAAAACAUGAGGAUCACCCAUGUAAAGAAAAGAAAAAUGGGAGAAGGGUGAAAAUAAGA [Mat - Same State 2 - JL mod - D19]", "Label value": "Condition not met"}
{"Seq": "AUAAUAAGAAGCUAGGAUAUGCUAAAGUAAACAUGAGGAUCACCCAUGUAAAGAAAAAAACUCAUGUAGAAGGAGCAGAAAUAAA [moonwalk 6]", "Label value": "Condition met"}
{"Seq": "AAAAACGUGGCGUAGGAUAUACUAAUAUUCACAUGAGGAUCACCCAUGUUCAUAUAUAUGAACGAGUAGAAGGACGACGAAAAAA [Mat - Same state - Malcolm Mod - D106]", "Label value": "Condition met"}
{"Seq": "AAUGAACAUGAGGAUCACCCAUGUUCUAAUAGUUGAGGAUAUAUGGGUGAAAAUAGCACAGUAGAAGGCGAGUGUA [SameState1 Malc#17]", "Label value": "Condition met"}
{"Seq": "AAAUAAAUGACUAAGGAUAUAUCAUAAGAAACAUGAGGAUCACCCAUGUAAUAAUAAAAAGGGUGAUAGAAGGUAGUCAACAAAC [74%, More Paria 4]", "Label value": "Condition met"}
{"Seq": "CGGAAGGAGAGAGAGGAUAUCCAAAGGAAAACAUGAGGAUCACCCAUGUAGAAGGUAGGAAAUUGGGAGAAGGCUCAAGAGAUAG [salish99-ss2-124]", "Label value": "Condition not met"}
